Attribution: PubChem BioAssay (NCI)

- System: NCI-H322M lung
- measurement-protocol: NCI-60 one-dose screen, 48 h (100 = growth as untreated, 0 = no growth, -100 = all killed)
- test-conditions: 10 µM
This is part of a sample that, as a whole, favours compounds with a hit. Of some 83,000 tested, about 20% had one in any assay.
measurement-kind: growth (%)
Give the value, in units of %, as a plain number.

O=C(NC([Se])=NC1CCCCC1)c1ccc2c(c1)OCO2 tested on NCI-H322M lung gave growth: 11.9

CCOP(=O)(CC(F)(F)C(F)(F)F)OCC tested on NCI-H322M lung gave growth: 100

O=C([Se]C1C=CCCC1)c1ccc(C(=O)[Se]C2C=CCCC2)s1 (configuration not stated) tested on NCI-H322M lung gave growth: -28.5

C=CC[Se]C(=O)c1ccc(C(=O)[Se]CC=C)s1 tested on NCI-H322M lung gave growth: -63.7

CC(C)N=C([Se])NC(=O)c1ccccc1 tested on NCI-H322M lung gave growth: -3.38

CC1=C(COCCOC(=O)c2ccc(S(=O)(=O)F)cc2)C2=C(C)C3(CC3)[C@@](C)(O)C(=O)C2=C1 tested on NCI-H322M lung gave growth: -25.8

COP(=O)(CC(F)(F)C(F)(F)F)OC tested on NCI-H322M lung gave growth: 109

CC(=O)Oc1ccccc1C(=O)NC([Se])=NC1CCCCC1 tested on NCI-H322M lung gave growth: 0.722

CC(=O)Oc1ccccc1C(=O)[Se]C(=NC(C)C)NC(C)C tested on NCI-H322M lung gave growth: -82.6

C=CCN=C([Se])NC(=O)c1ccc2c(c1)OCO2 tested on NCI-H322M lung gave growth: 14.8

Cc1ccc2[nH]c(=S)n(-c3ccc(F)cc3)c(=O)c2c1 tested on NCI-H322M lung gave growth: 99

CCOP(=O)(OCC)C(NC(C)=O)C(=O)SCCN (configuration not stated) tested on NCI-H322M lung gave growth: 102

CC[C@@]12CC(C(=O)OC)=C3Nc4cc5c(cc4[C@@]34CCN(C[C@H]3O[C@H]31)[C@@H]24)[C@@H]1[C@H](O5)[C@@H](O)[C@@]2(CC)CC(C(=O)OC)=C3Nc4cc(OC)ccc4[C@@]34CCN1[C@@H]24 tested on NCI-H322M lung gave growth: 25.1

CCC[Se]C(=O)c1ccc(C(=O)[Se]CCC)s1 tested on NCI-H322M lung gave growth: -33.4

COC(=O)C[C@](O)(CCCC(C)C)C(=O)O[C@H]1C(OC)=C[C@@]23CCCN2CCc2cc4c(cc2[C@@H]13)OCO4 tested on NCI-H322M lung gave growth: 25.4

CC[C@]12C=CCN3CC[C@@]4(c5ccc(OC)cc5N(C)[C@H]4[C@@](O)(C(=O)OC)[C@@H]1OC(=O)CCCC[P+](C1CCCCC1)(C1CCCCC1)C1CCCCC1)[C@@H]32 tested on NCI-H322M lung gave growth: 16.1

O=C(/C=C/c1ccc(Cl)cc1Cl)c1nc2ccccc2n1Cc1ccc(Br)cc1 tested on NCI-H322M lung gave growth: 84.4
